Experimental Details: Compound cytotoxicity, XTT-based colorimetric assay
Assay type: cell-based
Run Conditions: human; uninfected MT2 cells, day 4, XTT; read-out: CC50
Parameter: CC50 at 4 days

{"columns": ["Compound", "Parameter", "Observed"],
 "data": [
  ["COCCCn1nc(NS(C)(=O)=O)c2c(Cl)ccc(-n3c([C@H](Cc4cc(F)cc(F)c4)NC(=O)Cn4nc(C(F)F)c5c4C(F)(F)[C@@H]4C[C@H]54)nc4nc(C5CCC(F)(F)CC5)cc(NCCN5C[C@@H](C)O[C@@H](C)C5)c4c3=O)c21 (atropisomer, axis not shown; (P))", "CC50 at 4 days", "> 20 nM"],
  ["Cc1cc(C2CCC(F)(F)CC2)nc2nc([C@H](Cc3cc(F)cc(F)c3)NC(=O)Cn3nc(C(F)F)c4c3C(F)(F)[C@@H]3C[C@H]43)n(-c3ccc(Cl)c4c(NS(C)(=O)=O)nn(CCN5C[C@@H](F)C[C@H](F)C5)c34)c(=O)c12 (atropisomer, axis not shown; (P))", "CC50 at 4 days", "> 20 nM"],
  ["COCCCn1nc(NS(C)(=O)=O)c2c(Cl)ccc(-n3c([C@H](Cc4cc(F)cc(F)c4)NC(=O)Cn4nc(C5CC5)c5c4C[C@@H]4C[C@H]54)nc4nc(C5CCC(F)(F)CC5)cc(C5CC5)c4c3=O)c21 (atropisomer, axis not shown; (P))", "CC50 at 4 days", "> 20 nM"]
]}

====

# CC50 at 4 days per record follows
Experimental Details: Compound cytotoxicity, XTT-based colorimetric assay
Type: cell-based
Run Conditions: human; uninfected MT2 cells, day 4, XTT; read-out: CC50

{"columns": ["Compound", "CC50 at 4 days"],
 "data": [
  ["Cc1cc(C2CCC(F)(F)CC2)nc2nc([C@H](Cc3cc(F)cc(F)c3)NC(=O)Cn3nc(C(F)F)c4c3C(F)(F)[C@@H]3C[C@H]43)n(-c3ccc(Cl)c4c(NS(C)(=O)=O)nn(CCN5C[C@@H]6C[C@H]5CC6(F)F)c34)c(=O)c12 (atropisomer, axis not shown; (P)) [Example 310]", "> 50 nM"],
  ["CC1(C)CN(CCn2nc(NS(C)(=O)=O)c3c(Cl)ccc(-n4c([C@H](Cc5cc(F)cc(F)c5)NC(=O)Cn5nc(C(F)F)c6c5C(F)(F)[C@@H]5C[C@H]65)nc5nc(C6CCC(F)(F)CC6)cc(CF)c5c4=O)c32)CC(C)(C)O1 (atropisomer, axis not shown; (P)) [Example 513]", "> 20 nM"],
  ["Cc1cc(C2(F)CCC(F)(F)CC2)nc2nc([C@H](Cc3cc(F)cc(F)c3)NC(=O)Cn3nc(C4CC4)c4c3C[C@@H]3C[C@H]43)n(-c3ccc(Cl)c4c(NS(C)(=O)=O)nn(CCN5CCO[C@@H](C(C)C)C5)c34)c(=O)c12 (atropisomer, axis not shown; (P)) [Example 581]", "> 20 nM"],
  ["Cc1cc(C2(F)CCC(F)(F)CC2)nc2nc([C@H](Cc3cc(F)cc(F)c3)NC(=O)Cn3nc([C@H]4CC4(F)F)c4c3C[C@H]3C[C@@H]43)n(-c3ccc(Cl)c4c(NS(C)(=O)=O)nn(CCN5C[C@H](F)C[C@H](F)C5)c34)c(=O)c12 (atropisomer, axis not shown; (P)) [Example 573]", "> 20 nM"],
  ["CS(=O)(=O)Nc1nn(CCN2CCCC(F)(F)C2)c2c(-n3c([C@H](Cc4cc(F)cc(F)c4)NC(=O)Cn4nc(C(F)F)c5c4C(F)(F)[C@@H]4C[C@H]54)nc4nc(C5CCC(F)(F)CC5)ccc4c3=O)ccc(Cl)c12 (atropisomer, axis not shown; (P)) [Example 168]", "> 50 nM"],
  ["C[C@@H]1CN(Cc2cc(C3CCC(F)(F)CC3)nc3nc([C@H](Cc4cc(F)cc(F)c4)NC(=O)Cn4nc(C(F)F)c5c4C(F)(F)[C@@H]4C[C@H]54)n(-c4ccc(Cl)c5c(NS(C)(=O)=O)nn(CCN6CC(C)(C)OC(C)(C)C6)c45)c(=O)c23)C[C@H](C)O1 (atropisomer, axis not shown; (P)) [Example 529]", "> 1000 nM"],
  ["COCCCn1nc(NS(C)(=O)=O)c2c(Cl)ccc(-n3c([C@H](Cc4cc(F)cc(F)c4)NC(=O)Cn4nc(C(F)F)c5c4C(F)(F)[C@@H]4C[C@H]54)nc4nc(C5CCC(F)(F)CC5)cc(NCC(=O)N5CCCCC5)c4c3=O)c21 (atropisomer, axis not shown; (P)) [Example 566]", "> 20 nM"],
  ["Cc1cc(C2CCC(F)(F)CC2)nc2nc([C@H](Cc3cc(F)cc(F)c3)NC(=O)Cn3nc(C4CC4)c4c3C[C@@H]3C[C@H]43)n(-c3ccc(Cl)c4c(NS(C)(=O)=O)nn(CCN5CCC(F)CC5)c34)c(=O)c12 (atropisomer, axis not shown; (P)) [Example 277]", "> 50 nM"],
  ["C[C@@H]1CN(CCn2nc(NS(C)(=O)=O)c3c(Cl)ccc(-n4c([C@H](Cc5cc(F)cc(F)c5)NC(=O)Cn5nc(C6CC6)c6c5C[C@@H]5C[C@H]65)nc5nc(C6CCC(F)(F)CC6)cc(C(F)F)c5c4=O)c32)CC(C)(C)O1 (atropisomer, axis not shown; (P)) [Example 462]", "> 20 nM"],
  ["Cc1cc(C2(F)CCC(F)(F)CC2)nc2nc([C@H](Cc3cc(F)cc(F)c3)NC(=O)Cn3nc(C4CC4)c4c3C[C@@H]3C[C@H]43)n(-c3ccc(Cl)c4c(NS(C)(=O)=O)nn(C[C@@H](C)N5C[C@H](F)C[C@H](F)C5)c34)c(=O)c12 (relative stereo) [Example 702]", "> 20 nM"],
  ["Cc1cc(C2(F)CCC(F)(F)CC2)nc2nc([C@H](Cc3cc(F)cc(F)c3)NC(=O)Cn3nc(C4CC4)c4c3C(F)(F)[C@@H]3C[C@H]43)n(-c3ccc(Cl)c4c(NS(C)(=O)=O)nn(CCN5C[C@H](F)C[C@H](F)C5)c34)c(=O)c12 (atropisomer, axis not shown; (P)) [Example 570]", "> 20 nM"],
  ["Cc1cc(C2CCC(F)(F)CC2)nc2nc([C@H](Cc3cc(F)cc(F)c3)NC(=O)Cn3nc(C4CC4)c4c3C[C@@H]3C[C@H]43)n(-c3ccc(Cl)c4c(NS(C)(=O)=O)nn(CCN5C[C@@H]6C[C@H]5CC6(F)F)c34)c(=O)c12 (atropisomer, axis not shown; (P)) [Example 311]", "> 50 nM"],
  ["Cc1cc(C2CCC(F)(F)CC2)nc2nc([C@H](Cc3cc(F)cc(F)c3)NC(=O)Cn3nc(C(F)F)c4c3C(F)(F)[C@@H]3C[C@H]43)n(-c3ccc(Cl)c4c(NS(C)(=O)=O)nn(CCN5C[C@@H](F)[C@@H](F)C5)c34)c(=O)c12 (atropisomer, axis not shown; (P)) [Example 267]", "> 50 nM"]
]}
